PROCEDURE_DETAILS: NCI Yeast Anticancer Drug Screen. Data for the rad50 strain (AID 155);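 note: 0% = growth of vehicle-only cultures of the same strain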
CONDITIONS_USED: S. cerevisiae rad50 strain growth inhibition; at 50.0 µM; hits give high values
About 79,000 compounds went through this panel and 15% of them were active in at least one assay; those are over-represented in the sample as a whole.
Readings of growth inhibition for the listed compounds
READOUT: growth inhibition (%)

[[record]]
compound = "CCC(C)C(N=C1N=CNC2=NC=NC12)C(=O)O (configuration not stated)"
test_result = 0.45

[[record]]
compound = "CCCOCN1COCN=C1NC#N"
test_result = 28.8

[[record]]
compound = "N#CC(C#N)c1c(F)c(F)c(C(F)(F)F)c(F)c1F"
test_result = 10.4

[[record]]
compound = "CCOC(=O)C1=C(C(C)=O)C(c2cccc([N+](=O)[O-])c2)C(C(C)=O)=C(C(=O)OCC)N1"
test_result = -1.8

[[record]]
compound = "CCCCNC(=O)Nc1cccc(C)c1C"
test_result = -4.2

[[record]]
compound = "COc1ccc(-c2nc(SCc3ccc(Cl)cc3)[nH]c(=O)c2CCO)cc1"
test_result = 32.3

[[record]]
compound = "CN(C)CCCNc1ccc2nnn3c4ccc(O)cc4c(=O)c1c23"
test_result = -4.2

[[record]]
compound = "CCCCS(=O)(=O)CCCCCCl"
test_result = 1.55

[[record]]
compound = "N#CC(C#N)C1c2ccccc2Oc2ccccc21"
test_result = 7.1

[[record]]
compound = "CN1CCC(C[CH2][Sn]([c]2ccccc2)([c]2ccccc2)[c]2ccccc2)CC1"
test_result = 51.1

[[record]]
compound = "CC(=O)Nc1ccc(S(=O)(=O)[N-]C2C(=O)c3ccccc3C(=O)C2[n+]2ccccc2)cc1 (configuration not stated)"
test_result = 25.4

[[record]]
compound = "CCSC(SCC)C(NC(C)=O)C(O)C(O)COC(=O)c1ccccc1 (configuration not stated)"
test_result = 6.05


* * *

PROCEDURE_DETAILS: NCI Yeast Anticancer Drug Screen. Data for the sgs1 mgt1 strain (AID 161);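 note: 0% = growth of cultures given vehicle only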
CONDITIONS_USED: S. cerevisiae sgs1 mgt1 strain, at 50.0 µM, hits give high values
The panel holds about 79,000 compounds, 15% with a hit somewhere; the sample as a whole holds those more often.
Reported growth inhibition is given for each of the following compounds.
READOUT: growth inhibition (%)

[[record]]
compound = "CSc1ncc(CO)c(Nc2ccc(F)cc2)n1"
test_result = -16.4

[[record]]
compound = "C1=CC2=CC=CC3c4nc5ccc6ccccc6c5nc4C(=C1)C23 (stereo not drawn)"
test_result = -0.9

[[record]]
compound = "CC(C)CC(Nc1ccc2ccccc2c1)C(N)=O (stereo not drawn)"
test_result = 10.2

[[record]]
compound = "N#C/C(C(=O)Nc1ccccc1)=C(/N)N1CCCC1"
test_result = 1.85

[[record]]
compound = "CC(=S)N=Cc1c(N)[nH]n(-c2ccccc2)c1=O"
test_result = -24.6

[[record]]
compound = "C1=CC(=C(c2ccccc2)c2ccccc2)C=C1"
test_result = -4.5

[[record]]
compound = "CCCCCCC(/C=N\\N=C\\c1ccco1)=C\\c1ccccc1"
test_result = 1.25

[[record]]
compound = "N#C/C(=C\\C=C\\c1ccccc1)C(N)=O"
test_result = -27.4

[[record]]
compound = "CC1=C(O)C(=O)C2C(=O)C1C(C)C2c1ccccc1 (stereo not drawn)"
test_result = -32.2

[[record]]
compound = "COC(=O)c1ccc(C)[nH]1"
test_result = -22.2

[[record]]
compound = "Cn1c(=O)c2c(ncn2CCNC(c2ccccc2)c2ccc(Br)cc2)n(C)c1=O (stereo not drawn)"
test_result = 11.3

[[record]]
compound = "Cc1nc[nH]c1[N+](=O)[O-]"
test_result = -10

[[record]]
compound = "CCOC(=O)C1Sc2c(c(=O)n(C)c3ccccc23)C1=O (stereo not drawn)"
test_result = 34.1

[[record]]
compound = "Cc1ccc2c(=O)cc(-c3ccccc3)[nH]c2n1"
test_result = -42.1

[[record]]
compound = "O=C(OC1C#CCSCC#C/C=C\\1)c1cnc2ccccc2n1 (stereo not drawn)"
test_result = -24.3

[[record]]
compound = "CCCCCCCCCCCCCCCCCCCOc1ccc(OCCCCCCCCCC)cc1"
test_result = 24.6

[[record]]
compound = "Cc1ccc([N+](=O)[O-])cc1NC(=O)C(=O)Cc1nc2ccc(C(=O)c3ccccc3)cc2[nH]c1=O"
test_result = -9.05

[[record]]
compound = "CC(=O)CC1CCCCCC1"
test_result = 0.45

[[record]]
compound = "CC(=O)N=C1N(/C=C2\\C(=O)Oc3ccccc3C2=O)C(=O)/C(=C/c2ccc3c(c2)OCO3)N1C"
test_result = 5.25

[[record]]
compound = "CCOC(=O)c1[nH]n(-c2ccccc2)c(=O)c1C=NC(=S)c1cccnc1"
test_result = -29.2

[[record]]
compound = "CC(C)(C)C1CC/C(=N\\Nc2ccc([N+](=O)[O-])cc2[N+](=O)[O-])C(Cc2ccccc2)C1 (stereo not drawn)"
test_result = 19.5

[[record]]
compound = "CSC#CC(Sc1c(Cl)c(Cl)c(Cl)c(Cl)c1Cl)=C(Sc1c(Cl)c(Cl)c(Cl)c(Cl)c1Cl)Sc1c(Cl)c(Cl)c(Cl)c(Cl)c1Cl"
test_result = -1.7

[[record]]
compound = "COc1ccc(NC(=O)NCc2ccc(C)cc2)cc1"
test_result = 33.8

